experiment: yeast display, Sf9 membrane polyspecificity reagent, FACS + sequencing; frameworks hold sequencing errors
Measurement Name: polyreactivity (PSR sort gate)

>>> test_result("QVQLVESGGGLVQAGGSLRLSCAASGSTFYPYAMGWYSQAPGKERELVAAISSGGSTSYADSVKGRFTISRDNAKNTVYLQMNSLKPEDTAVYYCNASSPGAVPVYDYDYWGQGTQVTVSS")
"low polyreactivity"
>>> test_result("QVQLVESGGGLVQEGGSLRLSCAASGITFGSYAMGWYRQAPGKERELVAAIDTSGDDTYYADSVKGRFTISRDNAKYTVYLQMNSLKPEDTAVYYCAADFPSAEVDYWGQGTQVTVSS")
"low polyreactivity"
>>> test_result("QVQLVESGGGLVQAGGSLRLSCAASGFTFDPYAMGWYRQAPGKERELVAAISFSGGSTSYADSVKGRFTISRDNAKNTVYLHMNSLKLEDTAVYYCNAEYDWWSYWYDYWGQGTQVTVSS")
"high polyreactivity"
>>> test_result("QVQLVESGGGLVQAGGSLRLSCAASGSTFPGYAMGWYRQAPGKERELVAAGGSTYYADSVKGRFTISRDNAKNTVYLQMNSLKPEDTAVYYCAATWGSVQKGTYYYWGQGTQVTVSS")
"low polyreactivity"
>>> test_result("QVQLVESGGGLVQAGGSLRLSCAASGLTFERYAMGWYRQAPGKERELVAAISIRGGSTYYADSVKGRFTISRDNAKNTVYLQMNSLKPEDTAVYYCSADGRGREYDYWGQGTQVTVSS")
"low polyreactivity"
>>> test_result("QVQLVESVGGLVQAGCILRLSCAPSGRIFGVNAMGWYRQAPGKVRELVAAIDWSDGSTYYADSVKGRFTISRDNAKNTVYLQMNSLKPEDTAVYYCAALPSYLAAQYGDDYWGQGTQVTVSS")
"low polyreactivity"
>>> test_result("QVQLVESGGGLVQAGGSLRLSCAASGFIFFSYAMGWYRQAPGKEREFVASISGRTGSTYYADSVKGRFTISRDNAKNTVYLQMNSLKPEDTAVYYCNARIVHSFRYDYWGQGTQVNVSS")
"low polyreactivity"
>>> test_result("QFQLVESGGGLVQAGGSLRLSCAASGFIFKPYTMGWYRQAPGKERELVATITFSGGSTYYADSVKGRFTISLDNAQNTVYLQMNSLNPEDTAVYYCADPRYYRGYSIFDYLGQGTQVTVSS")
"low polyreactivity"
>>> test_result("QVHLVESGGGLDQAGGSLRLSCAASASIFELYAMGWYRQAPGKERELVAVISTGGSTYYADSVKGRFTISRDNAKNTVYLQMNSLKPEDTAVYYCAKGGYVPKLEYWGQGTQVTVSS")
"high polyreactivity"
>>> test_result("QVQLVESGGGLVQAGGSLRLSCAASGSIFTPYAMGWYRQAPGKERELVAGIRSSGGRTYYADSVKGRFTISRDNAKNTVYLQMNSLKPEDTAVYYCAARVGGIYRNDYWGQGTQVTVSS")
"low polyreactivity"
>>> test_result("QVQLVESGGGLVQAGGSLRLSCAASGSTFRRNAMGWYRQAPGKERELVAAISTSGGTTYYADSVKGRFTISRDNAKNTVYLQMNSLKPEDTAVYYCNKGGISGRDYWGLGTQVTVSS")
"high polyreactivity"

* * *

test: yeast display, Sf9 membrane polyspecificity reagent, FACS + sequencing; frameworks hold sequencing errors
Measurement Name: polyreactivity (PSR sort gate)

>>> test_result("QVQLVESGGGLVQAGGSLRLICAASGRTFNRYAMGWYRTAPRTERELVAVINSASSTNYADSVKGRFTISRDNAKNTVYLQMYSLKPEDTAVYYCNADGYRWYWYTGPMDYWGQGTKVTVSS")
"high polyreactivity"
>>> test_result("QVQLVESGGGLVQAGGSLRLSCAASGITYSYNAMGWSRQAPGKERELVAAISSNSDSTYFADSVMGRFTISRDNAKNTVYLQMNSLKPEDTAVYYCAADTPDAAVYSGFYYWGQGTQVTVSS")
"low polyreactivity"
>>> test_result("QVQLVESGGCLVQAGGSLRLSCAASGGIFYPNAMGWYRQAPGKEREFVASITRSGGSTYYADSVKGRFTISRDNAKNTVYLQLNSLTPEDTAVYDCAAAYKSLYTYTRFYYWGQGTQVTVSS")
"high polyreactivity"
>>> test_result("QVQLVESGGGLVQAGGSLRLSCAASGSTLAQYAMGWYRQAPGKERELVAAISRRGASTYYADSVKGRFTISRDNAKNTGYLQMNSLKPEDTAVYYCNAVRGEKMGYWGQGTQVTVSS")
"high polyreactivity"
>>> test_result("QVQVVESGGGLVQAGGSLRLSCAASGSTFFFYAMGWYIHAPGKERELVAAISSTGRKYYADSVKGRFTISRDNAKNTVYLQMNSLTPEDTAVYYCAARIYSGYSYWGQCTQVTVSS")
"high polyreactivity"
>>> test_result("QVQLVESGGGLVQAGGSLRLSCAASGITFLEYAMGWYRQAPGKERELVATINSGGSTNYADSVKGRFTISRDNAKNTVYLQMNSLKPVDTAVYYCAADYGSDYTKGDYWGQGTQVTVSS")
"low polyreactivity"
>>> test_result("QVQLVESGGGLVQAGGSLRLSCAASGFIFAFNAMGWYRQAPGKERELVAAISRSGGSTYADSVKGRFTISRDNEKNTVYLQMNSLKPEDTAVYFCAAYSGVGYLWFDYWGHGTQVTVSS")
"low polyreactivity"
>>> test_result("QVQLVESGGGLVQAGGSLRISCAASGRTFWKYVRGWYRQAPGKERELVAVISRPAGSTYYADSVKGRFTISRDNAKNTVYLQMNSLKPEDTAVYYCAKRPKNKPVLGDYDHWGQGTQVTVSS")
"low polyreactivity"
>>> test_result("QVQLVESGGGLVQAGGSLRLSCAASGFNFRYYAMGWYRQAPGKERELVAAISASSGRTYYADSVKGRFTISRDNAKNTVYLQMNSLKPEDTAVYYCAAEYIRNGDYGLDYWGQGTQVTVSS")
"high polyreactivity"
>>> test_result("QVQLVESGGGLVQAGGSLRLSCAASGITFEGYAMGWYRQAPRKERELVAAITGSGSTTYYADSVKGRFTISRDNAKNTVYLQMNSLKPEDTAVYYCAADVSYKLYWGQVTQVTVSS")
"low polyreactivity"
>>> test_result("QVQLVESGGGLVQAGGSLRLRCAASGFTSYINAMGWYRQAPGKERELVAGITWSTGNTYYADSVKGRFTISRDNAKNTVYLQMNSLKPEDTAVYYCAADFYVAYVGVQPYWMDYWGQGTEVTVSS")
"low polyreactivity"

* * *

test: yeast display, Sf9 membrane polyspecificity reagent, FACS + sequencing; frameworks hold sequencing errors
Measurement Name: polyreactivity (PSR sort gate)

>>> test_result("QVQLVESAGGLVQAGGSLRLSCAASGSTFQDYVMGWYRQAPGKERELVAAISRSGGSTYYADSVKGRFTISRDNAKNTVYLQMNSLKPEDTAVYYCAAQQYTYFVPFLTYGEYDYWGQGTQVTVSS")
"low polyreactivity"
>>> test_result("QVQLVESGGGLVQAGGSLRLICAASGLTFYVYAMGWYRQAPGKERELVAAISQRGGSTYYADSVKGRFKISRDNAKNTVYLQMNSLNPEDTAVYYCAKYTVQYAISHYDYWGQGTQVTVSS")
"high polyreactivity"
>>> test_result("QVQLVESGGGLVQEGGSLRLSCAASGSLFDVYAMGWYRQAPGKERELVAAISSSGSTYYADSVKGRFTISRDNAKNTVYLQMNSLKPEDTAVYYCAADQADDDDYYYWGQGTQVTVSS")
"low polyreactivity"
>>> test_result("QVQLVESGGGLVQAGGSLRLSCAASGGIFDRYAMGWKRQAPGKERELVAVISGSVNTYADSVKGRFTISRDNAKNTGYLRMNSLKPEDTAVYYCATQFEGPSGFNYWGQGTQVTVSS")
"low polyreactivity"
>>> test_result("QVHLVESGGGLVQAGGSLRLSCAATGSTFSNYAMGWNRQAPGKERELVASISNGGSTNYADSVKGRFTISRDNANNTVYLQMNSLKPVDTEVYFCIAESKAKYDYWGQGTQVSVSS")
"low polyreactivity"
>>> test_result("QVQLVESGGGLVQAGGSLRLSCAASGSTFDGYVMGWYRQAPGKEREFVAAISWSGGSTYYADSVKGRFTISRDNAKNTVYLQMNSLKPEDTAVYYCAARVRRQHGYWGQGTQVTVSS")
"high polyreactivity"
>>> test_result("QVQLVESGGGLVQAGGSLSLSCAASGFTFAKYAMGWYRQAPGKERELVATISWSGGTTSYADSVKGRFTISRDNAKNTVYLQMNSLKPEDTAVYYCAALRYADYDYWGQGTQVTVSS")
"high polyreactivity"
>>> test_result("QVQVVESGGGLVQAGGSLRLSCAASGSIFSGYAMGWYREAPGKERELVAAITSSGGSTYYADSVKGRFTISRDNAKKTVYLQMHSLKPEDTAVYYCAAYRYRYYSYDSWGQGTQVTVSS")
"high polyreactivity"
>>> test_result("QVQLVESGGGLVQAGGSLRLSCAASGRIFGGNAMGWYRQAPAKERELVAAISKRGGSTYYADSVKGRFTISRDNAKNTVYLQMNSLKPEDTAVDYCAATAYADQGLDYGYWGQGTQVTVSS")
"high polyreactivity"
>>> test_result("QVQLVESGGGLVQAGGSLRLSCAASGRIFYAYAMGWYRQAPGKERELVAAITFSGGSTYADSVKGRFTISRDNAKNTVYLQMNSLKPEDTAVYYCAADFGRHPRDYDYYWGQGTQVTVSL")
"low polyreactivity"
>>> test_result("QVQLVESGGGLVQAGGSLRLSCAASGFIFANYVMGWYRQAPGKERELVAAITYSGNTYYADSVKGRFTISRDNAKNTVYLQMNSLKPVDTAVYYCNADYVEGGLPGYDFDYWGQGTQVTVSS")
"low polyreactivity"
>>> test_result("QVQHVESGVGLVQAGGSLRLSCAASGRIFVFYTMGWYIQAPGKERELVARISSGGSKNYADSVKGRFTISRDNAKNTVYLQMNSLKPEDTAVYYCNAAYARGRAGYYYWGQGTQVTVSS")
"high polyreactivity"
>>> test_result("QVQLVESGGGLVQAGGSLRLSCAASGRTFAYNAMGWYRQAPGKEREFVAGISRSGGSTYYADSVKGRFTISRDNAKNTVYLQMNSLKPEDTAVYYCAAQFYALPNVGTKYYSWGQGTQVTVSS")
"low polyreactivity"
>>> test_result("QVQLVESGGGLVQAGGSLRLSCAASGFTFRNYAMGWYIQAPGKERELVATISWSGGSTYYADSVKGRFTISRDNAKNTVYLQMNSLKPEDTAVYYCAAKTILWKYYPYYYVTYDYWGQGTQVTVSS")
"high polyreactivity"
>>> test_result("QVQLVESGGGLVQAGGSIRLSCAASGNIFVSYAMGWYRQAPAKERELVAAISKSGGSTYYADSVKGRFTISRDNAKNTVYLQMNSLKPEDTAVYYCAARWYNRVKYQKYNYWGQGTQVTVSS")
"high polyreactivity"
>>> test_result("QVQLVESGGGLVQAGGSLRLSCAASGSIFPYYAMGWYRPAPGKERELVASINQSDGTTYYADSVKGRFTISRDNAKNTVYLQMNRLKPEDTAVSYCAADTTLQDFIRYRPMGSYDSWGQGTQVTVSS")
"low polyreactivity"
>>> test_result("QVQLVESGGGLVQAGGSLRLSCAASGRTFVFYAMGWYIQAPGKERELVASISDGDRTNYADSVKGRFTISRDNAKNTVYLQMNSLKPEDTAVYYCAADREFWWEVVYTYEYYYWGQGTQVTVSS")
"low polyreactivity"
>>> test_result("QVQLVESGGGLVQAGGSLRLSCAASGRTFWFYAMGWYRQAPGKERELVATINYRGGTTYYADSVKGRFTISRDNAKNTVYLQMNSLKPEDTAVYYCAVRPTRTFIYVYWGQGTEVTVSS")
"high polyreactivity"
>>> test_result("QVQLVESGGGLVQAGGSLRLSCADSGITFSRNAMGWYRQAPGKEMELVATITSGGSTNYADSVKGRFTISRDNAKNTVYLQMNSLKPEDTAVYYCNAVWNTFISGRSYDYWGQGTQVTVSS")
"low polyreactivity"
>>> test_result("QVQLQESGGRLVQAGGSLRLSCAASGNIFPTVSMGWYRQAPGKDREFVVTIDPGSNTYYADSAKGRFTISRDNAQNTVYLQMNSPKPEDTAVYYCAVVFADWATYGYWGQGTQVTVSS")
"high polyreactivity"
>>> test_result("QVQLVESRGGLVQAGGSLRLSCAASGRTFGRNTMGWYRQAPGKERELVAAISISGTSTYYADSVKGRFTISRDNAKNTVSLQMNSLKPEDTAVYDCAARYIRGSYGMGYWGQGTQVTVSS")
"high polyreactivity"
